Source listed as patent US10005792B2.

target: Full-length PRMT5 enzyme co-expressed with MEP50 (Homo sapiens (Human), UniProt O14744); experiment: PRMT5 Biochemical Assay; conditions: 200 nM histone H4 derived peptide substrate, 1 μM S-Adenosyl methionine, 4 hours at 37° C, Transcreener EPIGEN fluorescence polarisation
Sequence (O14744 whole entry): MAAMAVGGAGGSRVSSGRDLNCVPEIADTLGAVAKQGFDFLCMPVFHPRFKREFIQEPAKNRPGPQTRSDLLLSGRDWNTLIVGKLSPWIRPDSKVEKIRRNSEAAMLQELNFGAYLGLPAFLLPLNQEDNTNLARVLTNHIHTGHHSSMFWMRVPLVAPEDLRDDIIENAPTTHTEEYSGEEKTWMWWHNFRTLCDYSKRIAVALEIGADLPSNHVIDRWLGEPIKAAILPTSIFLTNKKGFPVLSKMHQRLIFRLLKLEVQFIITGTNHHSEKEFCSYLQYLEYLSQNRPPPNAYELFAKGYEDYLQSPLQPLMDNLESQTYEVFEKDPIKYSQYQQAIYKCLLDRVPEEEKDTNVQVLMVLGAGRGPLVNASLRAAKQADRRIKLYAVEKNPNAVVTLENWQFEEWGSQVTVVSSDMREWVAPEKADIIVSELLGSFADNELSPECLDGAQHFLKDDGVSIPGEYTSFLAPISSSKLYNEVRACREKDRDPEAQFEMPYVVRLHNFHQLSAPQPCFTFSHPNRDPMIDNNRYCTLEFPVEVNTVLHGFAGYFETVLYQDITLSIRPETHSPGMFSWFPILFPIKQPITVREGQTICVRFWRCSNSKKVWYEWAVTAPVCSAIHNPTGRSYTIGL
Sequence (Q9BQA1 whole entry partner): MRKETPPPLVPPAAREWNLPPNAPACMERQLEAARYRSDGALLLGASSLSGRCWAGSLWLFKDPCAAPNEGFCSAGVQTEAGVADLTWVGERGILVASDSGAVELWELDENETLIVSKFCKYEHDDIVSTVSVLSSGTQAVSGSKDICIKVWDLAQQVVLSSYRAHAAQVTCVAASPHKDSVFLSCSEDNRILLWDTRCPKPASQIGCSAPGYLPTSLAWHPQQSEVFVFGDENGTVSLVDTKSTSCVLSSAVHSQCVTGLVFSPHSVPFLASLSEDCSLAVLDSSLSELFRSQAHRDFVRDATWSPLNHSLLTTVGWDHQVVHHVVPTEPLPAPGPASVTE

# Molecule, IC50
data = [
    ("O=C(NCC(O)CNC1Cc2ccccc2C1)c1ccc(C(=O)N2CCCC2)cc1 (centres unmarked)", "1110 nM"),
    ("Cc1nnc(-c2ccc(C(=O)NC[C@H](O)CNC3Cc4ccccc4C3)cc2)o1", "695 nM"),
    ("O=C(NCC(O)CNC1CCc2ccc(F)cc2C1)c1ccc(Cl)cc1 (centres unmarked)", "22600 nM"),
    ("Cc1nn(C)cc1-c1cc(C(=O)NC[C@H](O)CNC2Cc3ccccc3C2)no1", "9780 nM"),
    ("O=C(NC[C@@H](O)CNC1Cc2ccccc2C1)c1ccc(C(=O)N2CCOCC2)cc1", "218 nM"),
    ("CC(=O)N1CCC(Nc2cc(C(=O)NCC(O)CNC3Cc4ccccc4C3)ccn2)CC1 (centres unmarked)", "50 nM"),
    ("O=C(NC[C@@H](O)CNC1Cc2ccccc2C1)c1ccc(N2CCOCC2)nc1", "301 nM"),
    ("O=C(NCC(O)CNC1Cc2ccccc2C1)c1ccc(C(=O)N2CCOCC2)cc1 (centres unmarked)", "310 nM"),
]

----------
IC50 for assorted compounds
target: UniProt O14744; test: Revised PRMT5 Biochemical Assay; conditions: 1 μM histone H4 derived peptide substrate, 1 μM S-Adenosyl methionine, 4 hours at 37 degree Celsius, Transcreener EPIGEN fluorescence polarisation

# Compound, Tested system, IC50, µM
rows = [
    ("CC(=O)N1CCC(Nc2cccc(C(=O)NC[C@@H](O)CNC3Cc4ccccc4C3)c2)CC1", "UniProt O14744", 0.137),
    ("CCOc1cc(C(=O)N2C3CCCC2COC3)ccc1C(=O)NC[C@@H](O)CNC1Cc2ccccc2C1", "UniProt O14744", 0.015),
    ("O=C(NC[C@@H](O)CNC1Cc2ccccc2C1)c1ccc(C(=O)N2C3CCC2COC3)cc1F", "UniProt O14744", 0.131),
    ("O=C(NC[C@@H](O)CNC1Cc2ccccc2C1)c1ccc(C(=O)N2CCC(O)CC2)cc1", "UniProt O14744", 0.63),
    ("O=C(NCC(O)CNC1Cc2ccccc2C1)c1cc(-c2ccccn2)[nH]n1 (centres unmarked)", "UniProt O14744", 12.8),
    ("CC(=O)N1CCN(C(=O)c2ccc(C(=O)NCC(O)CNC3Cc4ccccc4C3)cc2)CC1 (racemic)", "UniProt O14744", 0.585),
    ("CN(c1cc(C(=O)NCC(O)CNC2Cc3ccccc3C2)ccn1)C1CCCC1 (centres unmarked)", "UniProt O14744", 1.01),
    ("O=C(NC[C@@H](O)CNC1Cc2ccccc2C1)c1ccc(C(=O)N2CC3CCC(C2)O3)cc1", "UniProt O14744", 0.196),
]

----------
target: Full-length PRMT5 enzyme co-expressed with MEP50 (Homo sapiens (Human)); assay: PRMT5 Biochemical Assay; conditions: 200 nM histone H4 derived peptide substrate, 1 μM S-Adenosyl methionine, 4 hours at 37° C, Transcreener EPIGEN fluorescence polarisation
pIC50: −log10 of the molar value.

# Compound, Tested system, pIC50
records = [
    ("O=C(NCC(O)CNC1CCc2cc(F)ccc2C1)c1ccc(Cl)cc1 (centres unmarked)", "Full-length PRMT5 enzyme co-expressed with MEP50 (Homo sapiens (Human))", 4.73),
    ("O=C(NCC(O)CNC1Cc2ccccc2C1)c1ccc(C(=O)N2CCCCC2)cc1 (centres unmarked)", "Full-length PRMT5 enzyme co-expressed with MEP50 (Homo sapiens (Human))", 6.77),
    ("O=C(NCC(O)CNC1Cc2ccccc2C1)c1ccc(C(=O)N2C3CCC2COC3)cc1 (centres unmarked)", "Full-length PRMT5 enzyme co-expressed with MEP50 (Homo sapiens (Human))", 7.24),
    ("O=C(NC[C@H](O)CNC1Cc2ccccc2C1)c1ccc(N2CCOCC2)nc1", "Full-length PRMT5 enzyme co-expressed with MEP50 (Homo sapiens (Human))", 6.08),
    ("C[C@@H]1COCCN1C(=O)c1ccc(C(=O)NC[C@@H](O)CNC2Cc3ccccc3C2)cc1", "Full-length PRMT5 enzyme co-expressed with MEP50 (Homo sapiens (Human))", 7.02),
    ("O=C(NCC(O)CNC1Cc2ccccc2C1)c1ccc(C(=O)N2CC3CCC(C2)O3)cc1 (centres unmarked)", "Full-length PRMT5 enzyme co-expressed with MEP50 (Homo sapiens (Human))", 6.92),
    ("Cc1nonc1COc1ccc(C(=O)NC[C@H](O)CNC2Cc3ccccc3C2)cc1", "Full-length PRMT5 enzyme co-expressed with MEP50 (Homo sapiens (Human))", 6.58),
    ("O=C(NCC(O)CNC1Cc2ccccc2C1)c1ccc(Cl)cc1 (centres unmarked)", "Full-length PRMT5 enzyme co-expressed with MEP50 (Homo sapiens (Human))", 6.10),
]
